# MEASUREMENT_TARGET: 40-residue Alzheimer’s β-amyloid peptide (Aβ40) fibrils (Homo sapiens)
# Sequence (P05067 672-711): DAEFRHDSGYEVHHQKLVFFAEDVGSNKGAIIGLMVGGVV
# EXPERIMENT_NOTES: HPLC titration of free/bound ligand on preformed fibrils
MEASUREMENT_KIND: Kd (µM)
Report the value in µM with no unit label.

-- ask Need Kd, item CNc1ccc(-c2nc3ccc(O)cc3s2)cc1F
-- reply 1.6
